System: Escherichia coli ATCC 25922
measurement description: Oral formulations on mice with systemic bacterial infection
Assay type: in vivo, ICR mice
condition details: 1 mg/kg gavage, three times a day for 7 days, n = 10
Non-standard residues stand in square brackets, D forms with d. Residues, ends and D or L forms follow the SMILES beside them. dPhe(3,4-F2) = N[C@H](Cc1ccc(F)c(F)c1)C(=O)O; d2Nal = N[C@H](Cc1ccc2ccccc2c1)C(=O)O; dNva = CCC[C@@H](N)C(=O)O
Number of mice that died on each day after infection: day 8 values for the compounds below.
Dear colleague, please return just the value in Mouse, with no unit written.

Reference set, count: 3
compound="CCC[C@@H](NC(=O)[C@@H](CCCCN)NC(=O)[C@@H](CCCNC(=N)N)NC(C)=O)C(=O)N[C@H](CCC)C(=O)N[C@H](Cc1ccc2ccccc2c1)C(=O)N[C@H](CCCNC(=N)N)C(=O)N[C@H](CCC)C(=O)N[C@H](CCCCN)C(=O)N[C@H](Cc1ccc2ccccc2c1)C(=O)N[C@H](CCCNC(=N)N)C(=O)N[C@H](CCCCN)C(N)=O [LV-13] (Ac-[dR][dK][dNva][dNva][d2Nal][dR][dNva][dK][d2Nal][dR][dK]-NH2)" unit_tag=Mouse data_value=0
compound="CC(=O)N[C@H](CCCCN)C(=O)N[C@H](CCCCN)C(=O)N[C@H](CC(C)C)C(=O)N[C@H](CC(C)C)C(=O)N[C@H](Cc1ccc2ccccc2c1)C(=O)N[C@H](CCCCN)C(=O)N[C@H](CC(C)C)C(=O)N[C@H](CCCCN)C(=O)N[C@H](Cc1ccc2ccccc2c1)C(=O)N[C@H](CCCCN)C(=O)N[C@H](CCCCN)C(N)=O [LV-17] (Ac-[dK][dK][dL][dL][d2Nal][dK][dL][dK][d2Nal][dK][dK]-NH2)" unit_tag=Mouse data_value=0
compound="CC(=O)N[C@H](CCCNC(=N)N)C(=O)N[C@H](CCCCN)C(=O)N[C@H](CC(C)C)C(=O)N[C@H](CC(C)C)C(=O)N[C@H](Cc1ccc2ccccc2c1)C(=O)N[C@H](CCCNC(=N)N)C(=O)N[C@H](CC(C)C)C(=O)N[C@H](CCCCN)C(=O)N[C@H](Cc1ccccc1)C(=O)N[C@H](CCCNC(=N)N)C(=O)N[C@H](CCCCN)C(N)=O [LV-4] (Ac-[dR][dK][dL][dL][d2Nal][dR][dL][dK][dF][dR][dK]-NH2)" unit_tag=Mouse data_value=1

Measured Number of mice that died on each day after infection: day 8, CC(=O)N[C@H](CCCNC(=N)N)C(=O)N[C@H](CCCCN)C(=O)N[C@H](CC(C)C)C(=O)N[C@H](CC(C)C)C(=O)N[C@H](Cc1ccc(F)c(F)c1)C(=O)N[C@H](CCCCN)C(=O)N[C@H](CC(C)C)C(=O)N[C@H](CCCCN)C(=O)N[C@H](Cc1ccc(F)c(F)c1)C(=O)N[C@H](CCCCN)C(=O)N[C@H](CCCNC(=N)N)C(N)=O [LV-6] (Ac-[dR][dK][dL][dL][dPhe(3,4-F2)][dK][dL][dK][dPhe(3,4-F2)][dK][dR]-NH2) : 1

Measured Number of mice that died on each day after infection: day 8, CC(=O)N[C@H](CCCCN)C(=O)N[C@H](CCCCN)C(=O)N[C@H](CC(C)C)C(=O)N[C@H](CC(C)C)C(=O)N[C@H](Cc1ccc2ccccc2c1)C(=O)N[C@H](CCCNC(=N)N)C(=O)N[C@H](CC(C)C)C(=O)N[C@H](CCCCN)C(=O)N[C@H](Cc1ccc2ccccc2c1)C(=O)N[C@H](CCCNC(=N)N)C(=O)N[C@H](CCCCN)C(N)=O [LV-19] (Ac-[dK][dK][dL][dL][d2Nal][dR][dL][dK][d2Nal][dR][dK]-NH2) : 0
